Biological target: muscarinic cholinergic receptors
Test: 3H-oxotremorine-M binding study (oxotremorine-M versus N-methylscopolamine, Freedman et al.)
Conditions: inhibition of binding of 3H-oxotremorine-M; read-out: inhibition costant (Ki)
READOUT: Ki (nM)

COMPOUND | READOUT | MEASURED NUMBER
CCCCCCOc1nsnc1C1=CCCN(C)C1 [Xanomeline] | Ki | 2

====

Molecular target: muscarinic cholinergic receptors
Conditions: 3H-QNB binding assay
pIC50: −log10 of the molar value.

SMILES NOTATION | pIC50
CCCCCCOc1nsnc1C1=CCCN(C)C1 | > 3.00
